Assay: JC-1 mitochondrial potential readout, lung cancer cells – cell-based, A549, JC-1 fluorescence, basal, 24 h, 100 nL, profiling panel (AID 1138);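 also: A549 lung adenocarcinoma cells under basal conditions with no added stimulus; test concentration not given here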
Details: higher = more signal
readout: z-score

> print(dat)
                               given.smiles  measured
1  COc1ccccc1CN1C(=O)c2ccccc2[C@@H](C(=O)NCc2ccccc2)[C@@H]1c1ccc(CO)cc1      1.03
2  COc1ccc([Si](C)(C)[C@@H]2[C@@H](CCO)O[C@]3(C(=O)N(Cc4cccc(N5CCOC5=O)c4)c4ccccc43)[C@H]2C)cc1    -0.393
3  CC(C)(C)OC(=O)CC[C@]1(C(=O)NCCN2CCOCC2)COC(c2ccc(OCCCO)cc2)=N1     -0.13
4          CC(C)Cc1ccc(CN2CC[C@@H](N)C2)cc1      1.85
